molecular target: mouse pathogenic prion protein PrP^Sc (RML, in infected Balb-c mouse brain homogenate) (mouse), P04925; assay: bead pull-down from PrPSc+ mouse brain homogenate; ELISA
Sequence (P04925 23-230 limits assumed): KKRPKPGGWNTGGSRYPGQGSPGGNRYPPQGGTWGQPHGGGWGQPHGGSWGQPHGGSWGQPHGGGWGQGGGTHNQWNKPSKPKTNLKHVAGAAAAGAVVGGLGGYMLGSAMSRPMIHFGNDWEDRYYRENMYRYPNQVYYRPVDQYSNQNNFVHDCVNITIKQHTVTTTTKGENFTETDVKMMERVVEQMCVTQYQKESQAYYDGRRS
Think of 0.5 A405 nm as a floor: if ELISA A405 nm stands on it or above, it is True; beneath it, False.

Record GGGNKPSKPK (modifications not checked) [peptide reagent of SEQ ID NO:79] ; criterion: ELISA A405 nm no lower than 0.5 A405 nm. Met?
False

Do the same for GGGAGAAAAGAVVGGLGG (modifications not checked) [peptide reagent of SEQ ID NO:56] please
False

Do the same for GGGKPSKPK (modifications not checked) [peptide reagent of SEQ ID NO:80] please
False

Do the same for GGGGPKRKGPK (modifications not checked) [peptide reagent of SEQ ID NO:73] please
True

Do the same for GGGKKKKKKKK (modifications not checked) [peptide reagent of SEQ ID NO:85] please
True

Do the same for GGGKKRPKPGGGKKRPKPGG (modifications not checked) [peptide reagent of SEQ ID NO:72 (tandem repeat)] please
True

Do the same for GGGKKRAKAGG (modifications not checked) [peptide reagent of SEQ ID NO:98] please
True

Do the same for KKKAGAAAAGAVVGGLGG (modifications not checked) [peptide reagent of SEQ ID NO:65] please
True
